Where these numbers come from: PubChem BioAssay (NCI)

tested on: MDA-MB-231 breast; assay: NCI-60 one-dose screen, 48 h; settings: 10 µM unless noted
Compounds without any hit were thinned out: in the full panel of roughly 83,000, 20% have a hit. Activity calls are given as the source filed them. Rule for the calls: active = growth percent below 10; inactive = the rest.
Pick one and only one: YES for active, NO for inactive

Example entries and their recorded answers appear below.
| COMPOUND | MEASURED TARGET | CATEGORY |
| --- | --- | --- |
| O=C1CC(c2ccc3c(c2)OCO3)Nc2cc3c(cc21)OCO3 (stereo not given) | MDA-MB-231 breast | NO |
| O=[N+]([O-])c1ccc(-c2cc3c(Nc4ccc(Sc5nc6ccccc6s5)c(Cl)c4)ncnc3s2)cc1 | MDA-MB-231 breast | NO |

Q: Please share the test call associated with `CCOC(=O)Cc1csc2nc(-c3ccccc3)nn12` .
A: NO

Q: Quick one: `CN(C)CCOC(=O)Nc1ccc(Cl)cc1`
A: NO

Q: Next record, please: `N#Cc1c(NC(=O)c2cccc(C(F)(F)F)c2)sc2c1CCC(=O)C2`
A: YES

Q: Next record, please: `COc1cc2c(cc1OC)-c1ccc3cc4c(cc3c1N(CCN1CCCC1)C2)OCO4`
A: YES

Q: // query: `Cc1[nH]c(-c2nc3ccccc3[nH]2)c(C)c1C(=O)N1CCOCC1`
A: NO

---

tested on: UACC-62 melanoma; experiment: NCI-60 one-dose screen, 48 h (100 = growth as untreated, 0 = no growth, -100 = all killed); settings: 10 µM unless noted
Compounds without any hit were thinned out: in the full panel of roughly 83,000, 20% have a hit.
Quick reference for growth among some compounds
Express the result in % but write the number alone.

These solved cases illustrate the format of a correct answer.
| COMPOUND | RECORDED MEASUREMENT |
| --- | --- |
| COc1ccc(-n2sc(=O)n(Cc3ccc(COC(=O)C(C)c4ccc(CC(C)C)cc4)cc3)c2=O)cc1 (centres undefined) | 55.2 |
| O=C1C2=C(CCN(Cc3ccccc3)C2)N2CCN=C2N1Cc1ccc(F)cc1F | 44.5 |
| CCNCCNc1cc(-c2ccc(F)cc2)c(C#N)c2nc3ccccc3n12 | 12.7 |

Q: Record lookup: for UACC-62 melanoma, what growth belongs to `CCCCCCCC/C=C/CCCCCCCC1=NCC[N+]1(CCO)CCO` ?
A: 69.4

---

Measured growth by item
tested on: SN12C renal; experiment: NCI-60 one-dose screen, 48 h (100 = growth as untreated, 0 = no growth, -100 = all killed); conditions: 10 µM unless noted
About 83,000 compounds went through this panel and 20% of them were active in at least one assay; those are over-represented in the sample as a whole.
Give the value in % but do not write % after it.

// below: answered compounds
| COMPOUND | UNIT DESCRIPTOR | growth |
| --- | --- | --- |
| COC(=O)/C(=C\c1ccc(OC)cc1)C(=O)N1c2ccccc2Sc2ccccc21 | % | 71.1 |
| Cc1ccc(NC(=O)C(Cl)Cl)cc1 | % | 98.9 |
| CC/C=C/[C@@H]1C=C[C@@H]2CCC[C@H]2[C@@H]1CC[C@H](O)[C@H](C)N | % | 41.1 |
| CCNCCNc1cc(-c2ccc(C#N)cc2)c(C#N)c2nc3ccccc3n12 | % | 59.3 |
| CSc1ccc(Cl)c(C(=O)Nc2sccc2C(N)=O)c1 | % | 93.6 |

Q: For the compound `CNC(=O)c1cc(Oc2ccc3nc(Nc4cc(Cl)cc(Cl)c4)ccc3c2)ccn1` , what growth is on record?
A: 78.9

Q: Moving on to `CCOC(=O)c1c(C)nc2c(c1N)/C(=C/c1cc(OC)c(OC)c(OC)c1)C(=O)N2c1ccc(OC)cc1`
A: 36.2

Q: // query: `CCCCNC(=O)c1cc(NCc2cc(O)ccc2O)ccc1O`
A: 89.7

Q: Proceed to `CCN(CC)CCOC(=O)N1c2ccccc2Sc2ccccc21`
A: 101

Q: Also need CC(C)(C)OC(=O)N1Cc2cc3ccccc3nc2C1CO (stereo unspecified) , thanks.
A: 98.9

Q: Again, but for `CCCCOc1ccc(NC(=O)n2nc(N=NN(C)C)c3ccc(Cl)cc32)cc1`
A: 93.5

---

tested on: PC-3 prostate; assay: NCI-60 one-dose screen, 48 h; conditions: 10 µM unless noted
The panel holds about 83,000 compounds, 20% with a hit somewhere; the sample as a whole holds those more often. The source made the active and inactive calls. How the source made its calls: active means growth percent below 10; inactive means the rest.
API: response.call in 1 for active, -1 for inactive

| MOLECULE | CATEGORY |
| --- | --- |
| CNC(=O)c1cc(Oc2ccc3nc(Nc4cc(Cl)cc(Cl)c4)ccc3c2)ccn1 | -1 |
| CCOc1cc(N)ccc1C(=O)NCCCN(CC)CC | -1 |
| CO[C@H]1/C=C/O[C@@]2(C)Oc3c(C)c(O)c4c(c3C2=O)C(=O)C(/C=N/N(c2ccccc2)c2ccccc2)=C(NC(=O)/C(C)=C\C=C\[C@H](C)[C@H](O)[C@@H](C)[C@@H](O)[C@@H](C)[C@H](OC(C)=O)[C@@H]1C)C4=O | 1 |
| COc1cc2oc(-c3cccc(C(=O)Nc4ccc(C)cc4)c3)cc(=O)c2c(OC)c1OC | -1 |
| COC(=O)c1ccc2oc(NC(=O)c3ccc(N4CCOCC4)c([N+](=O)[O-])c3)nc2c1 | -1 |
| CCCCCCCCn1cc(C2=C(c3coc4ccc(OC)cc34)C(=O)NC2=O)c2ccccc21 | -1 |
| C(=C\c1nc2ccccc2[nH]1)/c1nc2ccccc2[nH]1 | -1 |
| O=C1C(Cl)C(c2ccccc2Cl)N1n1cnnc1 (stereo not drawn) | -1 |

Q: Recorded call for `CCOC(=O)Cc1csc2nc(-c3ccccc3)nn12` ?
A: -1

Q: Then what about the molecule `CCn1c(Sc2nnc(NC(=O)CSC(=S)N3CCCCC3)s2)nc2c1c(=O)n(C)c(=O)n2C` ?
A: -1

Q: Would you kindly repeat that for CSc1nc(N)c(CNC(C)c2ccccc2)c(=O)n1C (stereo not drawn) ?
A: -1

Q: Consider next the molecule `CC(C)(O)c1cccc(F)c1` in the same way.
A: -1

Q: Now this one: `O=C1Nc2ccccc2/C1=N/N=C/c1ccsc1`
A: -1

Q: Subsequent entry: `C[C@@H]1C(=O)N(C[C@H](Cc2ccccc2)NC(=O)OCc2ccccc2)[C@]1(Cc1ccccc1)C(=O)OC(C)(C)C`
A: -1

Q: Now this one: `CN(C)CCN1C(=O)c2cccc3c(-c4ccc(-c5nc6c7ccccc7c7ccccc7c6[nH]5)cc4)ccc(c23)C1=O`
A: -1

---

tested on: OVCAR-3 ovarian; assay: NCI-60 one-dose screen, 48 h (100 = growth as untreated, 0 = no growth, -100 = all killed); conditions: 10 µM unless noted
This is part of a sample that, as a whole, favours compounds with a hit. Of some 83,000 tested, about 20% had one in any assay.
Form field: growth (one value per entry).
Kindly provide the numeric value in % only, without the unit symbol.

Illustrative cases are given below, each with its answer.
| MOLECULE | MEASURED TARGET | growth (%) |
| --- | --- | --- |
| COc1cc(-c2cccc([N+](=O)[O-])c2)c(-c2nc(-c3ccccc3)c(-c3ccccc3)n2C2CC2)cc1OC | OVCAR-3 ovarian | 66.5 |
| CCCCCOC(=O)c1cccc(NC(=O)CN(CC)CC)c1 | OVCAR-3 ovarian | 113 |
| CC(C)OC(=O)OCOP(=O)(OCOC(=O)OC(C)C)C1CCCN(O)C1=O (stereo not given) | OVCAR-3 ovarian | 33.5 |
| COc1ccc(-c2nnc(SCC(=O)NC3=NN=C(c4ccccc4)CS3)o2)cc1 | OVCAR-3 ovarian | 107 |
| CC(C)CCC[C@@H](C)[C@H]1CCC2C3=CCn4c(=O)ccc(=O)n4C3CC[C@@]21C (stereo not given in full) | OVCAR-3 ovarian | -96.5 |
| O=C1CSC(c2ccccc2)N1c1ccccc1 (stereo not given) | OVCAR-3 ovarian | 112 |
| COc1ccc(-c2cncnc2N)cc1OC | OVCAR-3 ovarian | 115 |
| O=C1NCC(=O)N(Cc2ccco2)[C@H]1Cc1ccccc1 | OVCAR-3 ovarian | 110 |

Q: Lab note: need growth with OVCAR-3 ovarian for entry `O=C1N/C(=N/O)S/C1=C/c1cn(-c2ccccc2)nc1-c1ccccc1` , please look it up.
A: 93

Q: Try the molecule `C=C(C)[C@@H]1CC[C@]2(CO)CC[C@]3(C)[C@H](CC[C@@H]4[C@@]5(C)C=C(C#N)C(=O)C(C)(C)[C@@H]5CC[C@]43C)[C@@H]12`
A: -49.2

---

test system: EKVX NSCLC; assay: NCI-60 one-dose screen, 48 h (100 = growth as untreated, 0 = no growth, -100 = all killed); conditions: 10 µM unless noted
About 83,000 compounds went through this panel and 20% of them were active in at least one assay; those are over-represented in the sample as a whole.
Each item that follows carries a reported growth.
# output: bare number, implied unit %

Use these answered entries as a reference point.
| COMPOUND | growth, % |
| --- | --- |
| C=C1c2c(C)nn(-c3ccc(O)cc3)c2N(C)C23C[C@@H]1C1(C)c4c(C)nn(-c5ccc(O)cc5)c4N(C)C(C)(C[C@H]12)C3 (stereo not given in full) | 26.1 |
| CCOc1cc(N)ccc1C(=O)NCCCN(CC)CC | 106 |
| O=C1C=CC(=Nc2cc(Br)c(O)c(Br)c2)C=C1 | 90.7 |
| CN1CCN(c2ccc(Nc3ncc(Cl)c(NC[C@@H]4CCCO4)n3)cc2)CC1 | 39 |
| CC(C)CCC[C@@H](C)[C@H]1CCC2C3=CCC4C(=O)C=CC(=O)C4C3CC[C@@]21C (stereo not given in full) | -10 |
| COC(=O)c1ccc2oc(NC(=O)c3ccc(N4CCOCC4)c([N+](=O)[O-])c3)nc2c1 | 96.6 |
| Cc1ccc(/C(=N\N=C(N)N)c2ccccc2)cc1 | 34.3 |
| O=C1/C(=C/c2ccccc2[N+](=O)[O-])COc2ccc(O)c(O)c21 | 7.9 |
| Cc1nn(-c2ccccc2)c2c1C(c1ccc([N+](=O)[O-])cc1)C(C#N)=C(N)O2 (stereo not given) | 115 |
| CNC1(C#N)CCN(Cc2ccccc2)CC1 | 90.2 |

Q: Query the reported growth for EKVX NSCLC; item: `COc1ccc(-n2nnc(C(=O)NCCc3c[nH]c4ccc(F)cc34)c2C)cc1`
A: 102

Q: Same again, this time with `C#C[C@]1(O)CC[C@H]2[C@@H]3CC=C4c5sc(N=C(N)N)nc5CC[C@]4(C)[C@H]3CC[C@@]21C`
A: 12.7

Q: `CCOc1ccc(-c2nc3ccc(-c4nc5ccc(N6CCN(C)CC6)cc5[nH]4)cc3[nH]2)cc1OCC` ?
A: 50.2

Q: Moving on to C=C(C)[C@@H]1CC[C@]2(CNCCO)CC[C@]3(C)[C@H](CC[C@@H]4[C@@]5(C)CCC(N)[C@@](C)(CO)[C@@H]5CC[C@]43C)[C@@H]12 (stereo not given in full)
A: 40

Q: Try the compound `COc1ccc(/C=C2\COc3ccc(O)c(O)c3C2=O)c(OC)c1`
A: 85.3
